Source of measurements: patent US4109081A

test system: Swiss Albino mice; test: Intracerebral Toxicity in Mice; type: in vivo, mouse (Swiss Albino, Charles River); settings: intracerebral injection, seven day observation; Example IV at 4.3% iodine, Example V at 13.3% iodine
readout.type: LD50 Intracerebral (Mice)

>>> recorded_measurement("CNC(=O)c1c(I)c(NC(=O)N[C@@H](C=O)[C@@H](O)[C@H](O)[C@H](O)CO)c(I)c(N(C)C(C)=O)c1I")
"1,460 mg. I/kg. body wt."
>>> recorded_measurement("CNC(=O)c1c(I)c(NC(=O)N(C)C[C@H](O)[C@@H](O)[C@H](O)[C@H](O)CO)c(I)c(C(=O)N(C)C)c1I")
"1,500 mg. I/kg. body wt."
>>> recorded_measurement("CNC(=O)c1c(I)c(NC(=O)N[C@@H](C=O)[C@@H](O)[C@H](O)[C@H](O)CO)c(I)c(C(=O)NC)c1I")
"> 899 mg. I/kg. body wt."
>>> recorded_measurement("CNC(=O)c1c(I)c(NC(=O)N[C@@H](C=O)[C@@H](O)[C@H](O)[C@H](O)CO)c(I)c(C(=O)N(C)C)c1I")
"1,720 mg. I/kg. body wt."

Please examine the following record next.
The compound CNC(=O)c1c(I)c(NC(C)=O)c(I)c(NC(=O)N[C@@H](C=O)[C@@H](O)[C@H](O)[C@H](O)CO)c1I showed LD50 Intracerebral (Mice) equal to > 350 mg. I/kg. body wt.
